Data credit: patent US10882837B2

Biological target: GCGR (Homo sapiens)
Sequence (P47871 26-477, species assumed): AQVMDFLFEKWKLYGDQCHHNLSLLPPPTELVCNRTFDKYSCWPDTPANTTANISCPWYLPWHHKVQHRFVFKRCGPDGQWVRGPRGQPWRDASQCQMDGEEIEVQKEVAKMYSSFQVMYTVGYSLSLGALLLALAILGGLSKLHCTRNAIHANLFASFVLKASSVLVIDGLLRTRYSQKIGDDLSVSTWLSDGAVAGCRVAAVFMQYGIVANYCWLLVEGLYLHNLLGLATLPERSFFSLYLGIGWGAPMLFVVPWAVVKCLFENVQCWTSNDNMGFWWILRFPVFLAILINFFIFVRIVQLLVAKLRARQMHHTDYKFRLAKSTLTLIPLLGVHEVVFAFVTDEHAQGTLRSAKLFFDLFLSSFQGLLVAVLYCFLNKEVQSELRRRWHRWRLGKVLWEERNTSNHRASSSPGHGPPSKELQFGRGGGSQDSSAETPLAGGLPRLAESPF
Test: I125-glucagon binding assay (competition, GCGR membrane fractions)
Design: expressed in transfected cells; host or cells: CHO-K1
Details: compound at 30 μM; read-out: percentage of inhibition (number in parenthesis in IC50 binding column)
Protocol: I^125-Glucagon Binding Assay The binding affinity of each compound was evaluated by a competition assay with I^125-glucagon. GCGR membrane fractions were obtained from GCGR overexpressed CHO-K1 cells as a stock of 1 mg/ml concentration. […] The residual isotope was detected by Hidex CHAMELEON V micro-beta counter and the IC50 value of each compound binding to GCGR was calculated with non-linear regression.
value-kind: inhibition at 30 µM (%)
I only need the number, in %, no unit after it.

Specify inhibition at 30 µM for CCOC(=O)CCNC(=O)c1ccc(N[C@H](c2ccc(-c3nnc(-c4ccccc4)o3)cc2)C(C)CC)cc1 (some centres unmarked) and stop.
28

Identify the reported inhibition at 30 µM for the following entry. CCOC(=O)CCNC(=O)c1ccc(NC(c2ccc(-c3nnc(-c4ccccc4)o3)cc2)C(C)CC)cc1 (centres unmarked)
34

Determine its reported inhibition at 30 µM: CCOC(=O)CCNC(=O)c1ccc(NC(c2ccc(-c3nnc(-c4ccc(F)cc4)o3)cc2)C(C)C)cc1 (centres unmarked)
53

Give inhibition at 30 µM for CCOC(=O)CCNC(=O)c1ccc(NC(c2ccc(-c3nnc(-c4ccccc4)o3)cc2)C(C)C)cc1 (centres unmarked)
43

For CCCC[C@H](Nc1ccc(C(=O)NCCC(=O)OCC)cc1)c1ccc(-c2nc(-c3ccccc3)no2)cc1 , write its inhibition at 30 µM.
32
